- Tested system: human DGKα (Homo sapiens (Human))
- Sequence (P23743 whole entry, looked up): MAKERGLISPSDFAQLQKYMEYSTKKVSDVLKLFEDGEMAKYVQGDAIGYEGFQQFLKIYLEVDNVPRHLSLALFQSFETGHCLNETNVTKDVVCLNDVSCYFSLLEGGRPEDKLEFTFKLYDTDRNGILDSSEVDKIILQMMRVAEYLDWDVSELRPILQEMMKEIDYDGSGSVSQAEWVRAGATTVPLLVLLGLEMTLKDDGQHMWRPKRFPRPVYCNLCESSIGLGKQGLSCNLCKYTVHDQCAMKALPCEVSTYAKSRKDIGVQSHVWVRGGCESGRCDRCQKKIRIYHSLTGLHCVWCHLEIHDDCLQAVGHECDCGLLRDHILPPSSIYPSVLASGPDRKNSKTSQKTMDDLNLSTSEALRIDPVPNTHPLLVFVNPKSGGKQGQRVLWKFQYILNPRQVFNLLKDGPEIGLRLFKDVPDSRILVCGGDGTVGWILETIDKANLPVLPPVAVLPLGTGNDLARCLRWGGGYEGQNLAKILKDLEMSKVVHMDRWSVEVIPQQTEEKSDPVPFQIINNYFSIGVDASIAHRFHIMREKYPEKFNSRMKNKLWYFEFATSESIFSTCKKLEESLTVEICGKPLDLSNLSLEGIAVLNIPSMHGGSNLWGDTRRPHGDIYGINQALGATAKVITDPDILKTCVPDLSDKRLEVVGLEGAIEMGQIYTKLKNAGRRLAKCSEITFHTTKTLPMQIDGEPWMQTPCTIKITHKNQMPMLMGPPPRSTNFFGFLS
- Assay remarks: DGKα ADPGLO assay (detergent/lipid micelle substrate)
- Type: biochemical
- Reported conditions: ADPGLO assay; read-out: DGK alpha ADPGLO IC50
pIC50: −log10 of the molar value.
Endpoint name: pIC50

[[record]]
compound = "CCC(c1ccc(C(F)(F)F)cc1)N1C[C@H](CC)N(c2nc(=O)n(C)c3ccc(Cl)nc23)C[C@H]1CC (single isomer, unassigned) [Example 422]"
endpoint_name = "pIC50"
test_value = 6.64

[[record]]
compound = "CCC(c1ccc(C2CC2)cc1)N1C[C@H](C)N(c2nc(=O)n(C)c3ccc(C#N)nc23)C[C@H]1C (stereo partly drawn) [Example 379]"
endpoint_name = "pIC50"
test_value = 6.35

[[record]]
compound = "CC[C@H]1CN(C(c2ccc(F)cc2)c2noc(C3CC3)n2)[C@H](CC)CN1c1nc(=O)n(C)c2ccc(C#N)nc12 (single isomer, unassigned) [Example 372]"
endpoint_name = "pIC50"
test_value = 8.40

[[record]]
compound = "CC[C@@H]1CN(c2nc(=O)n(C)c3ccc(C#N)nc23)[C@@H](C)CN1C(C)c1ccc(C(F)(F)F)c(C#N)c1 (single isomer, unassigned) [Example 356]"
endpoint_name = "pIC50"
test_value = 4.74

[[record]]
compound = "CCC(c1nc(C2CC2)no1)N1C[C@H](CC)N(c2nc(=O)n(C)c3ccc(C#N)nc23)C[C@H]1CC (stereo partly drawn) [Example 364]"
endpoint_name = "pIC50"
test_value = 7.28

[[record]]
compound = "CC[C@H]1CN(C(C)c2nc(C3CC3)no2)[C@H](CC)CN1c1nc(=O)n(C)c2ccc(C#N)nc12 (stereo partly drawn) [Example 362]"
endpoint_name = "pIC50"
test_value = 7.21


====

As shown below, each of these compounds has a reported IC50 value.
- Tested system: human DGKζ (Homo sapiens (Human), UniProt Q13574)
- Sequence (Q13574 other isoform, or with tags, fused parts or gaps): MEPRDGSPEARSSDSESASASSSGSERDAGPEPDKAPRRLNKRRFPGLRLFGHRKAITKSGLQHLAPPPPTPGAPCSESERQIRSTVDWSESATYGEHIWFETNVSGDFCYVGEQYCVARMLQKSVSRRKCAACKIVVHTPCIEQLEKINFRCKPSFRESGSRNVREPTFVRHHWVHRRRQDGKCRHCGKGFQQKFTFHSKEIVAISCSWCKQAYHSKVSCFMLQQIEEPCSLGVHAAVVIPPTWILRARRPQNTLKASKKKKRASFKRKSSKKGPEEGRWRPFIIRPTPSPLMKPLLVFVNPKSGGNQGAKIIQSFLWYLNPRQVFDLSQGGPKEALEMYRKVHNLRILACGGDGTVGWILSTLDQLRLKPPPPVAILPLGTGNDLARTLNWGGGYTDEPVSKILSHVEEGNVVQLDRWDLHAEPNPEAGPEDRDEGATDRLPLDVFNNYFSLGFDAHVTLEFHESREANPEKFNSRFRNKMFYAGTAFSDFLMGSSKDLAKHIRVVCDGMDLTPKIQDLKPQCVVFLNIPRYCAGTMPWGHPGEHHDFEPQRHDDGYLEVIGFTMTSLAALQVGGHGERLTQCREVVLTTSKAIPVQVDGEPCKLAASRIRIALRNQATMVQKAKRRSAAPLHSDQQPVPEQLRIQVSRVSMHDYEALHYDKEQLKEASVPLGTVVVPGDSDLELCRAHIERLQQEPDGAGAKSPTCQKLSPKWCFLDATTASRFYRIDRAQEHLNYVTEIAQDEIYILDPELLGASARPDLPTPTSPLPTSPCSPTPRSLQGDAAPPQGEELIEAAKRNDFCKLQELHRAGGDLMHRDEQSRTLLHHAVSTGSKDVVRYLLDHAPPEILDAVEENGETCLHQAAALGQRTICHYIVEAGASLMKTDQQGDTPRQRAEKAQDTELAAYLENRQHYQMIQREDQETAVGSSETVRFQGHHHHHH
- Assay remarks: DGKζ LIPGLO assay (extruded liposome substrate, ADP-Glo luminescence)
- Type: biochemical
- Reported conditions: liposome (LIPGLO) assay; read-out: DGK zeta (liposome assay) IC50
Endpoint name: IC50 (nM)

[[record]]
compound = "COC(=O)NC[C@@H]1CN(c2nc(=O)n(C)c3ccc(C#N)nc23)[C@@H](C)CN1C(C)c1ccc(C(F)(F)F)cc1 (some centres unmarked)"
endpoint_name = "IC50"
test_value = 110

[[record]]
compound = "CCC(c1ccc(C2CC2)cc1F)N1C[C@H](C)N(c2nc(=O)n(C)c3ccc(C#N)nc23)C[C@H]1C (some centres unmarked) [Example 380]"
endpoint_name = "IC50"
test_value = 180

[[record]]
compound = "CCC(c1ccc(C(F)(F)F)cc1)N1C[C@H](CC)N(c2nc(=O)n(C)c3ccc(Cl)nc23)C[C@H]1CC (single isomer, unassigned) [Example 422]"
endpoint_name = "IC50"
test_value = 6870

[[record]]
compound = "CC[C@@H]1CN(c2nc(=O)n(C)c3ccc(C#N)nc23)[C@@H](C)CN1C(c1ccc(OC)cc1)C(C)C (some centres unmarked) [Example 313]"
endpoint_name = "IC50"
test_value = 650

[[record]]
compound = "CC[C@H]1CN(C(C)c2nc(C3CC3)no2)[C@H](CC)CN1c1nc(=O)n(C)c2ccc(C#N)nc12 (some centres unmarked) [Example 362]"
endpoint_name = "IC50"
test_value = 590

[[record]]
compound = "[2H]C([2H])([2H])n1c(=O)nc(N2C[C@@H](CC)N(C(C)c3ccc(C(F)(F)F)cc3)C[C@@H]2C)c2nc(C#N)ccc21 (single isomer, unassigned) [Example 420]"
endpoint_name = "IC50"
test_value = 760

[[record]]
compound = "CC[C@@H]1CN(c2nc(=O)n(C)c3ccc(C#N)nc23)[C@@H](C)CN1C(c1ccc(F)cc1)c1cccc(C(F)F)n1 (some centres unmarked) [Example 316]"
endpoint_name = "IC50"
test_value = 31

[[record]]
compound = "CC[C@@H]1CN(c2nc(=O)n(C)c3ccc(C#N)nc23)[C@@H](C)CN1C(C)c1ccc(C(F)(F)F)c(CN2CCCCC2)c1 (some centres unmarked) [Example 354]"
endpoint_name = "IC50"
test_value = 650

[[record]]
compound = "CCC(c1ccc(C2CC2)cc1F)N1C[C@H](C)N(c2nc(=O)n(C)c3ccc(C#N)nc23)C[C@H]1C (some centres unmarked) [Example 381]"
endpoint_name = "IC50"
test_value = 3410

[[record]]
compound = "CCC(c1nc(C2CC2)no1)N1C[C@H](CC)N(c2nc(=O)n(C)c3ccc(C#N)nc23)C[C@H]1CC (some centres unmarked) [Example 364]"
endpoint_name = "IC50"
test_value = 330

[[record]]
compound = "CC[C@H]1CN(C(C)c2ccc(C(F)(F)F)cc2)[C@H](CC)CN1c1nc(=O)n(C)c2ccc(C(F)F)nc12 (some centres unmarked) [Example 440]"
endpoint_name = "IC50"
test_value = 44600

[[record]]
compound = "CC(c1ccc(CN2C[C@@H]3C[C@H]2CO3)cc1)N1C[C@H](C)N(c2nc(=O)n(C)c3ccc(C#N)nc23)C[C@H]1C (some centres unmarked) [Example 387]"
endpoint_name = "IC50"
test_value = 6070

[[record]]
compound = "CC[C@H]1CN(C(C)c2ccc(C(F)(F)F)cc2)[C@H](CC)CN1c1nc(=O)n(C)c2ccc(OCCN(C)C)nc12 (some centres unmarked) [Example 431]"
endpoint_name = "IC50"
test_value = 250000

[[record]]
compound = "CC[C@@H]1CN(c2nc(=O)n(C)c3ccc(C#N)nc23)[C@@H](C)CN1C(C)c1ccc(C2(C#N)CC2)cc1 (some centres unmarked)"
endpoint_name = "IC50"
test_value = 69

[[record]]
compound = "CC[C@@H]1CN(c2nc(=O)n(C)c3ccc(C#N)nc23)[C@@H](C)CN1C(c1ccc(OC(C)C)cc1)C(C)C (some centres unmarked) [Example 323]"
endpoint_name = "IC50"
test_value = 21

[[record]]
compound = "CCC(c1ccc(OCC2CC2)cc1)N1C[C@H](C)N(c2nc(=O)n(C)c3ccc(C#N)nc23)C[C@H]1CC (some centres unmarked) [Example 308]"
endpoint_name = "IC50"
test_value = 39

[[record]]
compound = "CC[C@@H]1CN(c2nc(=O)n(C)c3ccc(C#N)nc23)[C@@H](C)CN1C(c1ccc(OC(C)C)cc1)C(C)C (some centres unmarked) [Example 324]"
endpoint_name = "IC50"
test_value = 200

[[record]]
compound = "CC[C@@H]1CN(c2nc(=O)n(C)c3ccc(C#N)nc23)[C@@H](C)CN1C(c1nc(C2CC2)no1)C(C)C (some centres unmarked) [Example 365]"
endpoint_name = "IC50"
test_value = 21

[[record]]
compound = "CCC1CN(c2nc(=O)n(C)c3ccc(C#N)nc23)[C@@H](C)CN1C(C)c1ccc(C(F)(F)F)c(CN2CCOCC2)c1 (single isomer, unassigned) [Example 350]"
endpoint_name = "IC50"
test_value = 120

[[record]]
compound = "CC[C@@H]1CN(c2nc(=O)n(C)c3ccc(C(F)F)nc23)[C@@H](C)CN1C(C)c1ccc(C(F)(F)F)cc1 (some centres unmarked) [Example 442]"
endpoint_name = "IC50"
test_value = 910

[[record]]
compound = "CCC(c1ccc(Br)cc1)N1C[C@H](C)N(c2nc(=O)n(C)c3ccc(C#N)nc23)C[C@H]1CC (some centres unmarked) [Example 322]"
endpoint_name = "IC50"
test_value = 760

[[record]]
compound = "CC[C@@H]1CN(c2nc(=O)n(C)c3ccc(C#N)nc23)[C@@H](C)CN1C(C)c1ccc(CNC(=O)OC)cc1 (some centres unmarked) [Example 359]"
endpoint_name = "IC50"
test_value = 220

[[record]]
compound = "CCC(C1CC1)N1C[C@H](C)N(c2nc(=O)n(C)c3ccc(C#N)nc23)C[C@H]1C (some centres unmarked) [Example 453]"
endpoint_name = "IC50"
test_value = 79400

[[record]]
compound = "CCC(c1nc(C2CC2)no1)N1C[C@H](CC)N(c2nc(=O)n(C)c3ccc(C#N)nc23)C[C@H]1CC (some centres unmarked) [Example 363]"
endpoint_name = "IC50"
test_value = 32

[[record]]
compound = "CC(c1ccc(CN2CCOC(C)(C)C2)cc1)N1C[C@H](C)N(c2nc(=O)n(C)c3ccc(C#N)nc23)C[C@H]1C (single isomer, unassigned) [Example 386]"
endpoint_name = "IC50"
test_value = 5070

[[record]]
compound = "CCC(c1ccc(OCC2CC2)cc1)N1C[C@H](C)N(c2nc(=O)n(C)c3ccc(C#N)nc23)C[C@H]1CC (some centres unmarked) [Example 309]"
endpoint_name = "IC50"
test_value = 850

